tested-on: human Nav1.7 (Homo sapiens, UniProt Q15858)
Sequence (Q15858 1-1977 isoform Q15858-3): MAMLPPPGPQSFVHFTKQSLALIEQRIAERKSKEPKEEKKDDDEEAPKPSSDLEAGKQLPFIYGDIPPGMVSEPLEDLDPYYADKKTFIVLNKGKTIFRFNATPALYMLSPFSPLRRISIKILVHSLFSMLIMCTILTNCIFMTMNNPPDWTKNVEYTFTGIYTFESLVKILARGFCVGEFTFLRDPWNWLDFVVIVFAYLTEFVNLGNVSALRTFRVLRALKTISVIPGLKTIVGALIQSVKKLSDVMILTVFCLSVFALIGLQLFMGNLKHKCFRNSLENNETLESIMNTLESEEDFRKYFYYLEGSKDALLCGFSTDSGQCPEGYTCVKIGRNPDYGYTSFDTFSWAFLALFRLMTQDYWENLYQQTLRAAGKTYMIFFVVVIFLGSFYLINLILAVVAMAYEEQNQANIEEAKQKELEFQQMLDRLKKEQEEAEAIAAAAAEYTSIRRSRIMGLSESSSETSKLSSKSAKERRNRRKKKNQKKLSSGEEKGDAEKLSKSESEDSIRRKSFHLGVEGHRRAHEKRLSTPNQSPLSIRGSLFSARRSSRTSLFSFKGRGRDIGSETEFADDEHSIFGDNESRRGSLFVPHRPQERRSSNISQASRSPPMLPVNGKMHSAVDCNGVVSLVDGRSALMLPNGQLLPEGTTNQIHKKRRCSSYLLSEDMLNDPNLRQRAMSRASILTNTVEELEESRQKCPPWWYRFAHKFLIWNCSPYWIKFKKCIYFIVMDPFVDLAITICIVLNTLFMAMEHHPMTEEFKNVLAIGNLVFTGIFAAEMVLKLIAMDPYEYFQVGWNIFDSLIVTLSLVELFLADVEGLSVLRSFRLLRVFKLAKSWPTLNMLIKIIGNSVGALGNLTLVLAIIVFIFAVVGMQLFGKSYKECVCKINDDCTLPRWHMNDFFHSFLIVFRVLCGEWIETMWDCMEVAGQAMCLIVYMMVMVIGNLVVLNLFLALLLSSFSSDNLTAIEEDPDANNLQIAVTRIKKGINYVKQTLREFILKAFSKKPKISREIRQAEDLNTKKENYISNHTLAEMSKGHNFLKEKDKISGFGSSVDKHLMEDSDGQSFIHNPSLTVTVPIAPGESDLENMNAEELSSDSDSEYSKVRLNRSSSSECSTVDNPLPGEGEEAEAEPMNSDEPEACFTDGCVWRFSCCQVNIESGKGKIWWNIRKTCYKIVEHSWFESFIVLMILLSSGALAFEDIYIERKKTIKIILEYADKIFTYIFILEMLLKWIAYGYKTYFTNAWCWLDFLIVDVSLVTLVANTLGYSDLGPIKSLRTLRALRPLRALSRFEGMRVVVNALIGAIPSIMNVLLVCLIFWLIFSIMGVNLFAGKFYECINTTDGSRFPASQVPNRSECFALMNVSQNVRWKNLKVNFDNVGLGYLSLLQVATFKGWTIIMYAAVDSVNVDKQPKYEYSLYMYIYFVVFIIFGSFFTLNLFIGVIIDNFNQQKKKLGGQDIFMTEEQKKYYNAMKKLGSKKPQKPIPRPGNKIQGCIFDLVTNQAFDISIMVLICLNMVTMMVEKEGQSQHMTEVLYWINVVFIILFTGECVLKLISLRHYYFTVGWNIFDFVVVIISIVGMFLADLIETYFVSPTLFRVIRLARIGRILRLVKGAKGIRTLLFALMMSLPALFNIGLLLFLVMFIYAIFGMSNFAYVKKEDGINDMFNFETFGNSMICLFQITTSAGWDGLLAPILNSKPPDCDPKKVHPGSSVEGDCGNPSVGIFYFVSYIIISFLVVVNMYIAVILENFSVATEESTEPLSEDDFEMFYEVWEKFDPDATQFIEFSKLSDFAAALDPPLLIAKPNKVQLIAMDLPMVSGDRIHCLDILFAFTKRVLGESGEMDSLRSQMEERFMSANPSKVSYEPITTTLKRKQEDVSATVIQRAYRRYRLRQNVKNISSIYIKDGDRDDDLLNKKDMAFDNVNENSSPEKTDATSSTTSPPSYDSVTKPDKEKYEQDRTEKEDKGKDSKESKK
measurement-description: FLIPR sodium dye assay (CoroNa Green AM Na+ dye, primary fluorescence assay) in recombinant Nav1.7/HEK293 cells
Format: cell-based
condition-summary: Table 6; CoroNa Green AM Na+ dye primary fluorescence assay; read-out: Nav1.7 Activity (μM) FLIPR assay IC50
Give measured IC50 for each item. Keep answers brief.
One number for each entry, in µM.

Solved cases (3 shown):
>>> result_value("NC(=O)c1cc(N[C@H]2CCNC2=O)nc(N2[C@@H]3CC[C@H]2C[C@@H](Oc2ccc(C(F)(F)F)cc2CN2CCCC2)C3)n1")
1.97
>>> result_value("NC(=O)c1cc(N[C@H]2CCNC2=O)nc(-c2ccc(Oc3ccc(C(F)(F)F)cc3C3=CCNCC3)cc2)n1")
5.28
>>> result_value("CCN(CC)Cc1cc(C(F)(F)F)ccc1Oc1ccc(-c2nc(N[C@H]3CCNC3=O)cc(C(N)=O)n2)cc1")
0.75

Please give IC50 for each item listed below.
1. CN1CCN(Cc2cc(Oc3ccc(C(F)(F)F)cc3)ccc2-c2nc(N[C@H]3CCNC3=O)cc(C(N)=O)n2)CC1
2. C[C@@H](Nc1cc(C(N)=O)nc(-c2ccc(Oc3ccc(C(C)(C)C)cc3)cc2)n1)C(N)=O

[0.76, 0.2]

Please give IC50 for each item listed below.
1. NC(=O)c1cc(N[C@H]2CCNC2=O)nc(Oc2ccc(Oc3ccc(C(F)(F)F)cn3)cc2)n1
2. N#Cc1ccc(Oc2ccc(-c3nc(N[C@H]4CCNC4=O)cc(C(N)=O)n3)cc2)cc1
3. Cc1cnc(Oc2ccc(-c3nc(N[C@H]4CCNC4=O)cc(C(N)=O)n3)cc2)cn1
4. NC(=O)c1cc(N[C@H]2CCNC2=O)nc(-c2ccc(Oc3ccc4c(c3)OCO4)cc2)n1
5. NC(=O)c1cc(N[C@H]2CCNC2=O)nc(-c2ccc(Oc3cc(Cl)ccc3F)cc2)n1

3.9
0.29
4.67
0.3
0.2

Please give IC50 for each item listed below.
1. NC(=O)c1cc(N[C@H]2CCNC2=O)nc(-c2ccc(Oc3ccc(C(F)(F)F)cc3)cc2CN2CCCCC2)n1
2. CC(C)(CO)[C@H](Oc1cc(C(N)=O)nc(-c2ccc(Oc3ccc(C(F)(F)F)cc3)cc2)n1)C(N)=O
3. NC(=O)c1cc(N[C@H]2CCNC2=O)nc(-c2ccc(Oc3ccc(C(F)(F)F)cc3)cc2)n1
4. C=CCN1CC[C@H](Oc2cc(C(N)=O)nc(-c3ccc(Oc4ccc(F)cc4)cc3)n2)C1=O
5. NC(=O)c1cc(O[C@H](C(N)=O)C(O)CO)nc(-c2ccc(Oc3ccc(C(F)(F)F)cc3)cc2)n1 (stereo partly shown)
6. C[C@H](Oc1cc(C(N)=O)nc(-c2ccc(Oc3ccc(C(F)(F)F)cc3CN3CCCC3)cc2)n1)C(=O)O

[0.72, 0.76, 0.33, 0.8, 0.7, 9.72]

====

Give measured IC50 for each item. Keep answers brief.
tested-on: human Nav1.7 (Homo sapiens, UniProt Q15858)
measurement-description: FLIPR sodium dye assay (CoroNa Green AM Na+ dye, primary fluorescence assay) in recombinant Nav1.7/HEK293 cells
Assay type: cell-based
condition-summary: Table 6; CoroNa Green AM Na+ dye primary fluorescence assay; read-out: Nav1.7 Activity (μM) FLIPR assay IC50

Solved cases (4 shown):
>>> result_value("C[C@H](Nc1cc(C(N)=O)nc(-c2ccc(Oc3cnc(C4CC4)cn3)cc2)n1)C(N)=O")
"> 20 µM"
>>> result_value("NC(=O)c1cc(N[C@H]2CCNC2=O)nc(-c2ccc(Oc3ccc(C(F)(F)F)cc3)c(N3CCCCC3)c2)n1")
"> 20 µM"
>>> result_value("N#Cc1cc(C(F)(F)F)ccc1O[C@H]1C[C@H]2CC[C@@H](C1)N2c1nc(N[C@H]2CCNC2=O)cc(C(N)=O)n1")
"> 20 µM"
>>> result_value("NC(=O)c1cc(N[C@H]2CCNC2=O)nc(N2C3CCC2CC(Oc2ccc(C(F)(F)F)cn2)C3)n1 (some centres unmarked)")
"0.38 µM"

Let us examine a further case.
Name the value of IC50 reported for Cc1cnc(Oc2ccc(-c3nc(N[C@@H](C)C(N)=O)cc(C(N)=O)n3)cc2)cn1 when tested on human Nav1.7 (Homo sapiens, UniProt Q15858).
> 20 µM

====

tested-on: hNav1.7 (Homo sapiens)
Sequence (Q15858 1-1977 isoform Q15858-3): as above
measurement-description: Electrophysiology (EP) whole-cell patch clamp assay in hNav1.7 expressing HEK-293 cells
Format: cell-based
condition-summary: Table 6; resting block dissociation constant; read-out: Nav1.7 Activity (μM) EP assay Kr
assay-metric: Kd (µM)
Answers are plain numbers, in µM.

>>> result_value("NC(=O)c1cc(N[C@H]2CCNC2=O)nc(-c2ccc(Oc3ccc(C4CC4)cn3)cc2)n1")
26.8
>>> result_value("NC(=O)c1cc(N[C@H]2CCNC2=O)nc(-c2ccc(Oc3cc(Cl)ccc3F)cc2)n1")
0.83

Let us examine a further case.
Fill in Kd for record NC(=O)c1cc(N[C@H]2CCNC2=O)nc(-c2ccc(Oc3ccc(Cl)cn3)cc2)n1
7.17

====

tested-on: human Nav1.7 (Homo sapiens, UniProt Q15858)
measurement-description: FLIPR sodium dye assay (CoroNa Green AM Na+ dye, primary fluorescence assay) in recombinant Nav1.7/HEK293 cells
Assay type: cell-based
condition-summary: Table 6; CoroNa Green AM Na+ dye primary fluorescence assay; read-out: Nav1.7 Activity (μM) FLIPR assay IC50
Give measured IC50 for each item. Keep answers brief.

Solved cases (3 shown):
>>> result_value("NC(=O)c1cc(N[C@H]2CCNC2=O)nc(-c2ccc(Oc3ccc(C(F)(F)F)nn3)cc2)n1")
"> 20 µM"
>>> result_value("C[C@H](Nc1cc(C(N)=O)nc(N2CC3CC2CN3c2ccc(F)cc2)n1)C(N)=O (stereo partly drawn)")
"10 to 20 µM"
>>> result_value("CN1CCN(Cc2cc(C(F)(F)F)ccc2Oc2ccc(-c3nc(N[C@H]4CCNC4=O)cc(C(N)=O)n3)cc2)CC1")
"> 20 µM"

Please give IC50 for each item listed below.
1. O=C(O)c1cc(N[C@H]2CCNC2=O)nc(-c2ccc(Oc3ccc(C(F)(F)F)cn3)cc2)n1
2. NC(=O)c1cc(N[C@H]2CCNC2=O)nc(-c2ccc(Oc3ncc(OCC(F)(F)F)cn3)cc2)n1
3. NC(=O)c1cc(-c2ccc(Oc3ccc(OC(F)(F)F)cc3)cc2)nc(N2CCC[C@H]2C(N)=O)n1

1. > 20 µM
2. > 20 µM
3. > 20 µM

These data points were gathered from patent US10196364B2.
